# Tested on: LOC_OS03G12390-cb001
# protocol-description: thermal shift delta Tm vs DMSO control; higher = stronger stabilization (binding);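 note: purified Escherichia coli-expressed rice kinase domain construct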
# details: 12.5 µM; protein concentration 2 µM
Label Criterion met for high-side thermal shift delta Tm (at or above 0.7 °C) and Criterion not met for low-side thermal shift delta Tm (below it).

- molecule: "O=C(NOC[C@H](O)CO)c1ccc(F)c(F)c1Nc1ccc(I)cc1F"
  group: "Criterion not met"
- molecule: "COc1cc2ncnc(Nc3ccc(Oc4ccccc4)cc3C)c2cc1OC"
  group: "Criterion not met"
- molecule: "O=C(O)c1cc(O)c2c(c1)[C@@H]([C@H]1c3cc(C(=O)O)cc(O)c3C(=O)c3c(O[C@@H]4O[C@H](CO)[C@@H](O)[C@H](O)[C@H]4O)cccc31)c1cccc(O[C@@H]3O[C@H](CO)[C@@H](O)[C@H](O)[C@H]3O)c1C2=O [Sennoside B]"
  group: "Criterion met"
- molecule: "COc1cc(OC)c(C=C2C(=O)Nc3ccccc32)c(OC)c1"
  group: "Criterion not met"
- molecule: "CC[C@@H]1C(=O)N(C)c2cnc(Nc3ccc(C(=O)N[C@H]4CC[C@H](N5CCN(CC6CC6)CC5)CC4)cc3OC)nc2N1C(C)C"
  group: "Criterion met"
- molecule: "CN(c1ccccc1CNc1nc(Nc2ccc3c(c2)CC(=O)N3)ncc1C(F)(F)F)S(C)(=O)=O"
  group: "Criterion met"
- molecule: "CC1Oc2cc(cnc2N)-c2c(nn(C)c2C#N)CN(C)C(=O)c2ccc(F)cc21 (stereo not drawn)"
  group: "Criterion met"
- molecule: "Cc1c[nH]c(/C=C2\\C(=O)Nc3ccccc32)c1CCC(=O)O"
  group: "Criterion met"

---

# Test system: LOC_OS04G35114-cb001
# protocol-description: thermal shift delta Tm vs DMSO control; higher = stronger stabilization (binding)
# details: 12.5 µM; protein concentration 2 µM
Structures can show the parent of a compound that is named as a salt.
Quick rule: thermal shift delta Tm of at least 2 °C means criterion met, below that means criterion not met.

- compound: "CN(C[C@@H]1COCCO1)S(=O)(=O)Nc1ccc2ccc3ncc(-c4cnn(C)c4)cc3c(=O)c2c1"
  group: "criterion met"
- compound: "Cc1ccc(NC(=O)c2cccc(C(C)(C)C#N)c2)cc1Nc1ccc2ncn(C)c(=O)c2c1"
  group: "criterion not met"
- compound: "N#C/C(=C\\c1ccc(O)c(O)c1)C(=O)NCc1ccccc1 [AG-490 (Tyrphostin B42)]"
  group: "criterion not met"
- compound: "CNC(=O)c1cc(Oc2ccc(NC(=O)Nc3ccc(Cl)c(C(F)(F)F)c3)cc2)ccn1 [Sorafenib Tosylate]"
  group: "criterion not met"
- compound: "OC1CCC(Nc2ncc3nc(Nc4c(F)cc(F)cc4F)n([C@H]4CCOC4)c3n2)CC1 (some centres not stated) [Tanzisertib(CC-930)]"
  group: "criterion not met"
- compound: "CCCCCCCCc1ccc(CCC(N)(CO)CO)cc1 [Fingolimod (FTY720) HCl]"
  group: "criterion not met"
- compound: "COc1cc2nccc(Oc3ccc(NC(=O)Nc4cc(C)on4)c(Cl)c3)c2cc1OC [Tivozanib (AV-951)]"
  group: "criterion met"
- compound: "N=C(N)NC(=N)NCCc1ccccc1 [Phenformin HCl]"
  group: "criterion not met"
- compound: "COc1cc2ccc(=O)oc2cc1O [Scopoletin]"
  group: "criterion not met"
- compound: "CCCS(=O)(=O)Nc1ccc(F)c(C(=O)c2c[nH]c3ncc(-c4ccc(Cl)cc4)cc23)c1F [Vemurafenib (PLX4032, RG7204)]"
  group: "criterion met"
- compound: "CC(C)(C)Cn1c(N)nc2ccc(-c3[nH]c(C(C)(C)C)nc3-c3ccc(F)cc3)nc21"
  group: "criterion not met"
- compound: "CO[C@H]1CC[C@H](N2C(=O)CNc3ncc(-c4ccc(C(C)(C)O)nc4)nc32)CC1"
  group: "criterion not met"
- compound: "CCn1cc(-c2ccnc3[nH]c(-c4cccc(CN(C)C)c4)cc23)c(-c2ccc(NC(=O)N(C)C)cc2)n1"
  group: "criterion not met"
- compound: "COc1cc(Nc2ncc3c(n2)-c2ccc(Cl)cc2C(c2c(F)cccc2OC)=NC3)ccc1C(=O)O [Alisertib (MLN8237)]"
  group: "criterion met"
- compound: "CN1CCN(c2ccc(Nc3cc(-c4cccc(-n5ccc6cc(C7CC7)cc(F)c6c5=O)c4CO)cn(C)c3=O)nc2)CC1"
  group: "criterion not met"
- compound: "CCN(CC)CCNC(=O)c1c(C)[nH]c(/C=C2\\C(=O)Nc3ccc(F)cc32)c1C [Sunitinib]"
  group: "criterion met"
- compound: "COc1cc2ncnc(Nc3cccc(Cl)c3F)c2cc1OC(=O)N1CCN(C)C[C@H]1C"
  group: "criterion met"

---

Reported thermal shift delta Tm values for a set of compounds
# Tested on: LOC_OS01G21960-cb002
# protocol-description: thermal shift delta Tm vs DMSO control; higher = stronger stabilization (binding)
# details: 12.5 µM; protein concentration 2 µM

- compound-smiles: "CCN1CCN(Cc2ccc(C(=O)Nc3ccc(C)c(Oc4ccc5c(c4)CC(=O)N5)c3)cc2C(F)(F)F)CC1"
  thermal shift delta Tm: "1.73 °C"
- compound-smiles: "N#Cc1ccc2[nH]c(O)c(-c3ccc(CN4CCOCC4)cn3)c2c1"
  thermal shift delta Tm: "0.79 °C"
- compound-smiles: "CNS(=O)(=O)C[C@H]1CC[C@H](N(C)c2[nH]cnc3nccc2-3)CC1"
  thermal shift delta Tm: "0.79 °C"
- compound-smiles: "O=C(NOC[C@H](O)CO)c1ccc(F)c(F)c1Nc1ccc(I)cc1F"
  thermal shift delta Tm: "0.89 °C"
- compound-smiles: "CC(C)(C)c1cnc(CSc2cnc(NC(=O)C3CCNCC3)s2)o1"
  thermal shift delta Tm: "0.34 °C"

---

Measured thermal shift delta Tm of individual entries
# Test system: LOC_OS06G16330-cb003
# Sequence (as listed by the source): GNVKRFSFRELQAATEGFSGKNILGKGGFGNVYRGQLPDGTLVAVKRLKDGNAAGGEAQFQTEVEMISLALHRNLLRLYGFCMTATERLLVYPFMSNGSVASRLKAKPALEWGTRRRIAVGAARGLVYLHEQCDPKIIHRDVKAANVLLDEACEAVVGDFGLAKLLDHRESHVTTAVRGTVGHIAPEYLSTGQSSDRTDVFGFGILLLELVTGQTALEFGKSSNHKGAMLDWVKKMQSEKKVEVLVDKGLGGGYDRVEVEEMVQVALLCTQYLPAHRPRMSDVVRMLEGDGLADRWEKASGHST
# protocol-description: thermal shift delta Tm vs DMSO control; higher = stronger stabilization (binding)
# details: 12.5 µM; protein concentration 2 µM

- compound-smiles: "Nc1ncnc2c1c(-c1cnc3[nH]ccc3c1)nn2C1CCCC1"
  thermal shift delta Tm: "3.18 °C"
- compound-smiles: "CCc1cnn2c(NCc3ccc[n+]([O-])c3)cc(N3CCCC[C@H]3CCO)nc12"
  thermal shift delta Tm: "-0.11 °C"
- compound-smiles: "O=C(Nc1c[nH]nc1-c1nc2ccc(CN3CCOCC3)cc2[nH]1)NC1CC1"
  thermal shift delta Tm: "10.7 °C"
- compound-smiles: "Nc1nccc(Oc2ccc(NC(=O)c3c[nH]cc(-c4ccc(F)cc4)c3=O)cc2F)c1Cl"
  thermal shift delta Tm: "6.76 °C"
- compound-smiles: "Cc1cc(F)c(Nc2ncnc3cc(OCc4ccccc4)ccc23)cc1O"
  thermal shift delta Tm: "-0.11 °C"

---

# Tested on: LOC_OS02G54510-cb004
# protocol-description: thermal shift delta Tm vs DMSO control; higher = stronger stabilization (binding)
# details: 12.5 µM; protein concentration 2 µM
Where a name gives a salt, the structure may show the parent alone.
Attribute: thermal shift delta Tm

- molecule: "CCn1c(=O)c(-c2ccc(Cl)cc2Cl)cc2cnc(Nc3ccc(N4CCNCC4)c(F)c3)nc21"
  thermal shift delta Tm / °C: 8.42
- molecule: "CNc1nc(-c2ccc3c(N)n[nH]c3c2)cc(N2C[C@@H](C(=O)NC3CCCCC3)CC[C@H]2C)n1"
  thermal shift delta Tm / °C: 0.92
- molecule: "CC(C)c1c2cc(-c3ccnc(NC4CCC(NC5CCOCC5)CC4)n3)ccc2nn1C (stereo unspecified)"
  thermal shift delta Tm / °C: 0.06
- molecule: "CC1(C)OC(=O)C=C[C@]2(C)[C@H]3CC[C@@]4(C)[C@H](c5ccoc5)OC(=O)[C@H]5O[C@]54[C@]3(C)C(=O)C[C@@H]12 [Obacunone]"
  thermal shift delta Tm / °C: -0.19
- molecule: "c1nc2c(NC3CCCCC3)nc(Nc3ccc(N4CCOCC4)cc3)nc2[nH]1 [Reversine]"
  thermal shift delta Tm / °C: 4.92
- molecule: "N#Cc1ccc2[nH]c(O)c(-c3ccc(CN4CCOCC4)cn3)c2c1"
  thermal shift delta Tm / °C: -0.01
- molecule: "Cc1nc2c(-c3cnc(N)nc3)nc(N3CCOCC3)nc2n1C(C)C"
  thermal shift delta Tm / °C: 0.46
- molecule: "C[C@@H](N)c1ccc(C(=O)Nc2ccnc3[nH]ccc23)cc1"
  thermal shift delta Tm / °C: 0.39
- molecule: "CC(C)CCN1c2nc(Nc3cc(F)c(O)c(F)c3)ncc2N(C)C(=O)C1C (stereo unspecified)"
  thermal shift delta Tm / °C: 1.91
- molecule: "C[C@H]1[C@H](C)CC[C@]2(C(=O)O)CC[C@]3(C)C(=CC[C@@H]4[C@@]5(C)C[C@@H](O)[C@H](O)[C@@](C)(CO)[C@@H]5CC[C@]43C)[C@H]12 [Asiatic Acid]"
  thermal shift delta Tm / °C: -0.04
- molecule: "CNS(=O)(=O)C[C@H]1CC[C@H](N(C)c2[nH]cnc3nccc2-3)CC1 [Oclacitinib]"
  thermal shift delta Tm / °C: 0.36
- molecule: "COc1cc(OC)cc(-c2cc3cnc(N)nc3nc2NC(=O)NC(C)(C)C)c1"
  thermal shift delta Tm / °C: 0.19
- molecule: "CN(C)CCCn1cc(C2=C(c3c[nH]c4ccccc34)C(=O)NC2=O)c2ccccc21"
  thermal shift delta Tm / °C: 0.36
- molecule: "C[S+]([O-])c1ccc(-c2nc(-c3ccc(F)cc3)c(-c3ccncc3)[nH]2)cc1 (stereo unspecified)"
  thermal shift delta Tm / °C: 0.81
- molecule: "Nc1cccc(S(=O)(=O)N2CCCN(S(=O)(=O)c3ccc4c(c3)OCCO4)CC2)c1"
  thermal shift delta Tm / °C: 0.12
- molecule: "O=C(c1ccc(/C=C/c2n[nH]c3ccccc23)cc1)N1CCNCC1"
  thermal shift delta Tm / °C: 0.61
- molecule: "Cc1c[nH]c(/C=C2\\C(=O)Nc3ccccc32)c1CCC(=O)O"
  thermal shift delta Tm / °C: 0.94
- molecule: "CCS(=O)(=O)c1cccc(-c2cc(C(=O)NC3CCN(C)CC3)c(C)c3[nH]c4ncc(C)cc4c23)c1"
  thermal shift delta Tm / °C: 2.03
- molecule: "COc1cc2nccc(Oc3ccc(NC(=O)C4(C(=O)Nc5ccc(F)cc5)CC4)cc3)c2cc1OC [Cabozantinib malate (XL184)]"
  thermal shift delta Tm / °C: 0.27
- molecule: "O=C(O)CCC(=O)Nc1ccc(Br)cn1 [Bikinin]"
  thermal shift delta Tm / °C: 0.11
- molecule: "CC(C)(C)c1nc(-c2cccc(NS(=O)(=O)c3c(F)cccc3F)c2F)c(-c2ccnc(N)n2)s1"
  thermal shift delta Tm / °C: 2.41
- molecule: "C#Cc1cccc(Nc2ncnc3cc4c(cc23)OCCOCCOCCO4)c1 [Icotinib]"
  thermal shift delta Tm / °C: 0.13
- molecule: "O=C1NC(=O)C(c2ccccc2[N+](=O)[O-])=C1Nc1ccc(O)c(Cl)c1"
  thermal shift delta Tm / °C: 0.07
- molecule: "COc1ccc(S(=O)(=O)N(C(C)=O)c2ccccc2/C=C/c2cc[n+]([O-])cc2)cc1"
  thermal shift delta Tm / °C: -0.24
- molecule: "CC1=C(C(=O)Nc2ccc3[nH]ncc3c2)C(c2ccc(F)cc2)NC(=O)N1 (stereo unspecified)"
  thermal shift delta Tm / °C: 0.18
- molecule: "Cc1cc(Nc2nc(N[C@@H](C)c3ncc(F)cn3)ncc2Cl)[nH]n1"
  thermal shift delta Tm / °C: 2.58
- molecule: "Cc1nc(NC(=O)N2CCC[C@H]2C(N)=O)sc1-c1ccnc(C(C)(C)C(F)(F)F)c1 [Alpelisib (BYL719)]"
  thermal shift delta Tm / °C: 0.02
- molecule: "Cc1[nH]c(/C=C2\\C(=O)Nc3ccc(S(=O)(=O)N(C)c4cccc(Cl)c4)cc32)c(C)c1C(=O)N1CCN(C)CC1"
  thermal shift delta Tm / °C: 0.59
- molecule: "COc1cc2ncnc(Nc3cccc(Cl)c3)c2cc1OC [AG-1478 (Tyrphostin AG-1478)]"
  thermal shift delta Tm / °C: 0.2
- molecule: "C[C@H]1CNCCCN1S(=O)(=O)c1cccc2cncc(F)c12 [Ripasudil (K-115) hydrochloride dihydrate]"
  thermal shift delta Tm / °C: -0.02
- molecule: "COCCOc1cnc2ccn([C@H](C)c3nnc4c(F)cc(-c5cnn(C)c5)cn34)c(=O)c2c1"
  thermal shift delta Tm / °C: -0.12
- molecule: "CN1c2ccccc2C(=O)Nc2cnc(Nc3ccc(N4CCC(O)CC4)cc3)nc21"
  thermal shift delta Tm / °C: 2.78
- molecule: "Nc1nc(N)c(N=O)c(OCC2CCCCC2)n1"
  thermal shift delta Tm / °C: 0.21
- molecule: "O=C(NCc1ccccc1)c1csc(Nc2ccncn2)n1 [Thiazovivin]"
  thermal shift delta Tm / °C: 0.46
- molecule: "Cn1ncc(Cl)c1-c1cc(C(=O)N[C@H](CN)Cc2ccc(F)c(F)c2)oc1Cl"
  thermal shift delta Tm / °C: -0.14
- molecule: "O=c1c(O)c(-c2ccc(O)c(O)c2)oc2cc(O)cc(O)c12 [Quercetin]"
  thermal shift delta Tm / °C: 0.4
